test system: NCI-H460 tumor-bearing mice (lung cancer); test: Biodistribution: lutetium accumulation in tumor, plasma and healthy tissues by ICP-MS; assay type: in vivo; settings: 0.5 mg/kg lutetium conjugate; plasma; 72 h
readout-kind: % ID/g uptake, Plasma, 72 h (% ID/g)
Value expressed in % ID/g; do not type the unit.

Provide the documented % ID/g uptake, Plasma, 72 h with NCI-H460 tumor-bearing mice (lung cancer) as the system for CCNC(=O)c1nnc(-c2cc(C(C)C)c(O)cc2O)n1-c1ccc(CN2CCN(C(=O)CCNC(=O)[C@@H](CCC(=O)N3CCN(Cc4ccc(-n5c(C(=O)NCC)nnc5-c5cc(C(C)C)c(O)cc5O)cc4)CC3)NC(=O)CCNC(=O)[C@@H](CCC(=O)O)NC(=O)[C@@H](CCC(=O)O)NC(=O)[C@@H](CCC(=O)O)NC(=O)COCCOCCNC(=O)CNC(=O)[C@H](CCCCN)NC(=O)CNC(=O)CC[C@H](C(=O)O)N3CCN4CCN5CCN(CC3)CC(=O)[O][Lu]([O]C(=O)C5)[O]C(=O)C4)CC2)cc1 [T9]
1.53

* * *

Test system: NCI-H460 tumor-bearing mice (lung cancer)
Assay: Biodistribution: lutetium accumulation in tumor, plasma and healthy tissues by ICP-MS
Format: in vivo
Details: 24 h
Procedure: Lutetium accumulation was measured in tumor, plasma and healthy tissues of NCI-H460 tumor-bearing mice (lung cancer). NCJ-H460 tumor bearing mice were dosed with 0.5 mg/kg of lutetium conjugates. At the time points indicated, mice were sacrificed and tumor, liver, kidneys and plasma were taken. All tissues were analyzed for lutetium content by ICP-MS, and lutetium uptake in % ID/g determined by the following equation: […]
Rule: T/P (Tumor/Plasma ratio) under 4 gives no (0), otherwise yes (1).

smi: CCNC(=O)c1nnc(-c2cc(C(C)C)c(O)cc2O)n1-c1ccc(OC2CCN(C(=O)CCOCCOCCOCCOCCNC(=O)CN3CCN4CCN5CCN(CC3)CC(=O)[O][Lu]([O]C(=O)C4)[O]C(=O)C5)CC2)cc1
label-class: yes (1)
--
smi: CC(C)c1cc(-c2nnc(O)n2-c2ccc(OC3CCN(C(=O)CCOCCOCCOCCOCCNC(=O)CN4CCN5CCN6CCN(CC4)CC(=O)[O][Lu]([O]C(=O)C5)[O]C(=O)C6)CC3)cc2)c(O)cc1O
label-class: yes (1)
--
smi: CCNC(=O)c1nnc(-c2cc(C(C)C)c(O)cc2O)n1-c1ccc(CC2CCN(C(=O)CCC(=O)N[C@@H](CCCCNC(=O)CN3CCN4CCN5CCN(CC3)CC(=O)[O][Lu]([O]C(=O)C4)[O]C(=O)C5)C(=O)N3CCC(Cc4ccc(-n5c(C(=O)NCC)nnc5-c5cc(C(C)C)c(O)cc5O)cc4)CC3)CC2)cc1
label-class: no (0)
--
smi: CCNC(=O)c1nnc(-c2cc(C(C)C)c(O)cc2O)n1-c1ccc(CC2CCN(C(=O)CCOCCOCCOCCOCCNC(=O)[C@H](CCCCNC(=O)CCCc3ccc(I)cc3)NC(=O)CN(CC)CCN3CCN4CCN(C)CC(=O)[O][Lu]([O]C(=O)C4)[O]C(=O)C3)CC2)cc1
label-class: no (0)

# input for lookup
Please indicate if the recorded T/P (Tumor/Plasma ratio) for "CCNC(=O)c1nnc(-c2cc(C(C)C)c(O)cc2O)n1-c1ccc(CN2CCN(C(=O)C[C@H](NC(=O)CCNC(=O)[C@H](CO)NC(=O)[C@H](CO)NC(=O)[C@H](CO)NC(=O)CC[C@H](C(=O)O)N3CCN4CCN5CCN(CC3)CC(=O)[O][Lu]([O]C(=O)C5)[O]C(=O)C4)C(=O)N[C@H](C)C(=O)N3CCN(Cc4ccc(-n5c(C(=O)NCC)nnc5-c5cc(C(C)C)c(O)cc5O)cc4)CC3)CC2)cc1" meets or exceeds 4.
no (0)

These measurements were taken from patent US20260166158A1.
